Test system: Staphylococcus aureus
Assay: Susceptibility testing (MIC, modified NCCLS method)
Format: cell-based
Conditions: S. aureus ATCC 700260
Experimental: The NCCLS (National Committee for Clinical Laboratory Standards) method to determine MIC's of antimicrobial compounds was modified for high-throughput screening. All stocks of tested compounds were prepared in either water or in dimethylsulfoxide (DMSO), depending on the solubility. […] Bacterial growth was determined by the increase of optical density at 600 nm using a microplate reader (Tecan SpectraFluor Plus).
Listed compounds paired with reported MIC

COMPOUND	MIC, ng/mL
NC(C(=O)NC1C(=O)N2C(C(=O)O)=C(COc3cc(Cl)ccc3Oc3ccc(Cl)cc3Cl)CSC12)c1ccccc1 (centres unmarked)	0.015
O=C(Cn1cnnn1)Nc1ncc(CC(=O)NC2C(=O)N3C(C(=O)O)=C(COc4cc(Cl)ccc4Oc4ccc(Cl)cc4Cl)CS[C@H]23)s1 (some centres unmarked)	8000
CC(=O)NC1C(=O)N2C(C(=O)O)=C(COc3cc(Cl)ccc3Oc3ccc(Cl)cc3Cl)CSC12 (centres unmarked)	63
O=C(Cc1cccs1)NC1C(=O)N2C(C(=O)O)=C(CC=COc3cc(Cl)ccc3Oc3ccc(Cl)cc3Cl)CSC12 (centres unmarked)	0.01
O=C(Cc1cnc[nH]1)NC1C(=O)N2C(C(=O)O)=C(COc3cc(Cl)ccc3Oc3ccc(Cl)cc3Cl)CS[C@H]12 (some centres unmarked)	32000

---

Parameter: MIC. Scope: all listed entries.
System: Staphylococcus aureus
Assay: Susceptibility testing (MIC, modified NCCLS method)
Assay type: cell-based
Conditions: S. aureus ATCC 11632
PARAMETER MEASURED: MIC (µg/mL)

MOLECULE	MEASURED
O=C(Cc1cnc[nH]1)NC1C(=O)N2C(C(=O)O)=C(COc3cc(Cl)ccc3Oc3ccc(Cl)cc3Cl)CS[C@H]12 (stereo partly shown)	16
O=C(Cc1cccs1)NC1C(=O)N2C(C(=O)O)=C(CC=COc3cc(Cl)ccc3Oc3ccc(Cl)cc3Cl)CSC12 (stereo not shown)	0.065
NC(C(=O)NC1C(=O)N2C(C(=O)O)=C(COc3cc(Cl)ccc3Oc3ccc(Cl)cc3Cl)CSC12)c1ccccc1 (stereo not shown)	0.062
O=C(Cn1cnnn1)Nc1ncc(CC(=O)NC2C(=O)N3C(C(=O)O)=C(COc4cc(Cl)ccc4Oc4ccc(Cl)cc4Cl)CS[C@H]23)s1 (stereo partly shown)	32

---

Tested on: E. coli N
Experiment: Inhibition of bacterial growth (IC50, OD600)
Assay type: cell-based
Conditions: Escherichia coli, 10 h, read-out: IC50 10 hours, Cell N, 10 hours, 37° C.
PARAMETER MEASURED: IC50 (µM)

COMPOUND	MEASURED
CC1(C)S[C@@H]2[C@H](NC(=O)[C@H](N)c3ccccc3)C(=O)N2[C@H]1C(=O)O [Ampicillin, ampicillin, reference compound]	9.71
O=C(Cc1cccs1)N[C@@H]1C(=O)N2C(C(=O)O)=C(COc3cc(Cl)ccc3Oc3ccc(Cl)cc3Cl)CS[C@H]12	0.189

---

System: P. aeruginosa
Assay: Susceptibility testing (MIC, modified NCCLS method)
Type: cell-based, Pseudomonas aeruginosa
Details: P. aeruginosa ATCC 21726
PARAMETER MEASURED: MIC

COMPOUND	PARAMETER MEASURED	MEASURED
O=C(Cc1cccs1)NC1C(=O)N2C(C(=O)O)=C(CC=COc3cc(Cl)ccc3Oc3ccc(Cl)cc3Cl)CSC12 (centres unmarked) [Compound 24]	MIC	>16.6 µg/mL
O=C(Cc1cccs1)NC1C(=O)N2C(C(=O)O)=C(C=CCOc3ccc(Cl)cc3C(=O)Nc3ccc(Cl)c(Cl)c3)CS[C@H]12 (some centres unmarked) [Compound 35]	MIC	>32 µg/mL
Cc1nnc(SCC(=O)Nc2ncc(CC(=O)NC3C(=O)N4C(C(=O)O)=C(COc5cc(Cl)ccc5Oc5ccc(Cl)cc5Cl)CSC34)s2)s1 (centres unmarked) [Compound 47]	MIC	>32 µg/mL
O=C(Cn1cnnn1)Nc1ncc(CC(=O)NC2C(=O)N3C(C(=O)O)=C(COc4cc(Cl)ccc4Oc4ccc(Cl)cc4Cl)CS[C@H]23)s1 (some centres unmarked) [Compound 43]	MIC	>32 µg/mL
O=C(Cc1cnc[nH]1)NC1C(=O)N2C(C(=O)O)=C(COc3cc(Cl)ccc3Oc3ccc(Cl)cc3Cl)CS[C@H]12 (some centres unmarked) [Compound 31]	MIC	>32 µg/mL
NC(C(=O)NC1C(=O)N2C(C(=O)O)=C(COc3cc(Cl)ccc3Oc3ccc(Cl)cc3Cl)CSC12)c1ccccc1 (centres unmarked) [Compound 38]	MIC	>15.9 µg/mL
CON=C(C(=O)NC1C(=O)N2C(C(=O)O)=C(COc3cc(Cl)ccc3Oc3ccc(Cl)cc3Cl)CSC12)c1csc(N)n1 (centres unmarked) [Compound 44]	MIC	>32 µg/mL
CC(=O)NC1C(=O)N2C(C(=O)O)=C(COc3cc(Cl)ccc3Oc3ccc(Cl)cc3Cl)CSC12 (centres unmarked) [Compound 45]	MIC	>32 µg/mL
